System: HCT-116
protocolNotes: NCI tumour cell line growth inhibition, 48 h
Activity calls are given as the source filed them. No stated cut-off is given here; in the data, active = GI50 up to about 1.1 µM and inactive = higher.
valueType: GI50

input: Sample CN(C)C(=O)Oc1c(-c2ccccc2)c(=O)n2c3ccccc3n3c(=O)n(C)c(=O)c1c23 — what was its GI50?
output: > 100 µM (inactive)

input: GET /values?readout=GI50&item= CNc1nncc2[nH]cnc12
output: > 100 µM (inactive)

input: Form field: reported GI50 of COC(=O)C1CCC(N2C(=O)CCC2C(=O)OC)=N1 (stereo not given)
output: > 100 µM (inactive)

input: What value of GI50 has been recorded for this entry: COc1cc(C2SCC(=O)N2c2ccc(Cl)cc2)cc(I)c1O (stereo not given)
output: 18.5 µM (inactive)

input: Please look up its GI50: C=CCN1CCC(OC(=O)C(O)(/C=C\CC)C2CCCC2)CC1 (stereo not given)
output: > 100 µM (inactive)

input: Suppose we examine the compound C/C=C(\C)c1cc(=O)c2c(C)cc3c(c2o1)C(=O)c1c(O)c(C2CC(C)(N(C)C)C(OC(C)=O)C(C)O2)cc(C2CC(N(C)C)C(O)C(C)O2)c1C3=O (stereo not given) ; what GI50 value has been reported?
output: 0.185 µM (active)

input: Endpoint output: GI50 of COC(=O)C(N)CCCC(N)C(=O)NC(C)C(=O)NC(CCC(=O)NCCNCCNc1c2ccccc2nc2cccc([N+](=O)[O-])c12)C(N)=O (stereo not given) . Value?
output: 4.63 µM (inactive)

input: Would you kindly share the measured GI50 for CN(C)c1n/c(=N/Cc2ccccn2)ss1 ?
output: 7.98 µM (inactive)

input: Name the reported GI50 value associated with the compound Cc1ccc2nc3c(Cl)cc(=O)cc-3sc2c1
output: 17.9 µM (inactive)

input: What value of measured GI50 is listed for CC1=NN(c2nc(N)nc(/C(C#N)=C/c3cccn3-c3cc(Cl)cc(Cl)c3)n2)C(C)(C)C1 ?
output: > 100 µM (inactive)
